Each item that follows carries a reported inhibition at 20000 µM.
Biological target: LmjIPCS (inositol phosphorylceramide synthase from L. major) (Leishmania major)
Sequence (E9AFX2 whole entry): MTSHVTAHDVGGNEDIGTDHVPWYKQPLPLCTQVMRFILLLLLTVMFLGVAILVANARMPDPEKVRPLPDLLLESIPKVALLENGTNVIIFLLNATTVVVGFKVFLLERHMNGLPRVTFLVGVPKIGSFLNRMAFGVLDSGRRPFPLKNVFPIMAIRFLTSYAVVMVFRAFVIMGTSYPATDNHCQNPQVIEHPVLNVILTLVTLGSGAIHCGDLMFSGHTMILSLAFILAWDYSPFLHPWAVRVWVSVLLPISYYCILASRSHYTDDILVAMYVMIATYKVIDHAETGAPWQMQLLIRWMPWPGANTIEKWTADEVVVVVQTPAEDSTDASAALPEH
Assay: biochemical
Type: biochemical
Conditions: read-out: 20mM inhibition LmjIPCS
readout: inhibition at 20000 µM (%)

>>> quantitativeresult("CC(C)c1c(C(=O)Nc2ccccc2)c(-c2ccccc2)c(-c2ccc(F)cc2)n1CC[C@@H](O)C[C@@H](O)CC(=O)O")
9.48
>>> quantitativeresult("CC(=O)OCC(=O)[C@@]1(O)CC[C@H]2[C@@H]3CCC4=CC(=O)C=C[C@]4(C)[C@H]3[C@@H](O)C[C@@]21C [PREDNISOLONE ACETATE]")
25
>>> quantitativeresult("O=C(O)CN(CC(=O)O)Cc1cc2c(cc1O)Oc1cc(O)c(CN(CC(=O)O)CC(=O)O)cc1C21OC(=O)c2ccccc21")
0
>>> quantitativeresult("CC[C@H]1OC(=O)[C@H](C)C(=O)[C@H](C)[C@@H](O[C@@H]2O[C@H](C)C[C@H](N(C)C)[C@H]2O)[C@](C)(OC)C[C@@H](C)C(=O)[C@H](C)[C@H]2N(CCCCn3cnc(-c4cccnc4)c3)C(=O)O[C@]12C")
3.66
>>> quantitativeresult("CN1[C@@H]2C[C@@H](OC(=O)[C@H](CO)c3ccccc3)C[C@H]1[C@@H]1O[C@@H]12")
-2.65
>>> quantitativeresult("C=C(C)[C@H]1CN[C@H](C(=O)O)[C@H]1CC(=O)O")
14
>>> quantitativeresult("CC(=O)NC(C(=O)O)C(C)(C)SN=O (centres unmarked)")
9
>>> quantitativeresult("NC[C@H](O)c1ccc(O)c(O)c1 [NOREPINEPHRINE]")
12
>>> quantitativeresult("CO[C@H]1C[C@H](O[C@H]2[C@H](C)[C@@H](O[C@@H]3O[C@H](C)C[C@H](N(C)C)[C@H]3O)[C@@H](C)C[C@@]3(CO3)C(=O)[C@H](C)[C@@H](O)[C@@H](C)[C@@H](C)OC(=O)[C@@H]2C)O[C@@H](C)[C@@H]1O")
1.17
>>> quantitativeresult("C[C@H]1O[C@@H](O[C@H]2[C@@H](O)C[C@H](O[C@H]3[C@@H](O)C[C@H](O[C@H]4CC[C@@]5(C)[C@H](CC[C@@H]6[C@@H]5C[C@@H](O)[C@]5(C)[C@@H](C7=CC(=O)OC7)CC[C@]65O)C4)O[C@@H]3C)O[C@@H]2C)C[C@H](O)[C@@H]1O")
5.32
>>> quantitativeresult("CN1[C@@H]2CC[C@H]1C[C@@H](OC(=O)C(CO)c1ccccc1)C2 (some centres unmarked)")
26
>>> quantitativeresult("O=[N+]([O-])NC1=NCCN1Cc1ccc(Cl)nc1")
8
>>> quantitativeresult("C[C@@H]1O[C@@H](Oc2c(-c3ccc(O)c(O)c3)oc3cc(O)cc(O)c3c2=O)[C@H](O)[C@H](O)[C@H]1O")
6.42
>>> quantitativeresult("[O-][n+]1ccccc1S")
10

Values from paper PMC7802075
